B1: SLC19A2 (parent)
chain: FASLRPSEPFLTPYLLGPDKNLTE

Variants of: B1
assay_name: protein stability index of a GFP-peptide fusion (GPS, HEK-293T) (PSI 1-6); higher = more stable;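 also: lentivirally expressed fusions sorted by FACS into six bins by GFP to DsRed ratio, PSI derived from sequencing read proportions per bin multiplied by bin number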
setup_conditions: c terminus: a fixed tail appended
The following variants are shown together with reported protein stability index values.
outcome_measure: protein stability index

1) E24N ... 1.38
2) E24K ... 1.96
3) S3M ... 1.74
4) L16M ... 1.79
5) L16V ... 1.79
6) T23Y ... 2.27
7) L22P ... 1.86
